Biological target: M^pro (Severe acute respiratory syndrome coronavirus 2, UniProt P0DTD1)
Experiment: M^pro-mediated dye release from coacervates
Assay type: biochemical, SARS-CoV-2
Conditions: (R5R5, D10) coacervates, 100 μM dye

# COMPOUND, Release efficiency, RE%, by M^pro
data = [
    ("CN(C)c1ccc2nc3ccc(N)cc3[s+]c2c1.[Cl-] [Azure A, azure A]", "95 ± 1%"),
    ("CCN(CC)c1ccc2c(-c3ccccc3C(=O)O)c3ccc(=[N+](CC)CC)cc-3oc2c1 [Rhodamine B, rhodamine B]", "96 ± 2%"),
    ("CC/N=c1\\cc2oc3cc(NCC)c(C)cc3c(-c3ccccc3C(=O)OCC)c-2cc1C [Rhodamine 6G, rhodamine 6G]", "98 ± 1%"),
    ("CNc1ccc2nc3ccc(N)cc3[s+]c2c1 [Azure C, azure C]", "98 ± 1%"),
    ("Cc1cc2nc3ccc(N(C)C)cc3nc2cc1N.Cl [Neutral red, neutral red]", "99 ± 1%"),
    ("O=C1OC2(c3ccc(O)cc3Oc3cc(O)ccc32)c2ccccc21 [Fluoresceine, fluoresceine]", "73 ± 7%"),
]

----------
Entries and their measured Encapsulation efficiency, EE% follow.

# COMPOUND, Encapsulation efficiency, EE%
data = [
    ("CNc1ccc2nc3ccc(N)cc3[s+]c2c1 [Azure C, azure C]", "65 ± 2%"),
    ("CC/N=c1\\cc2oc3cc(NCC)c(C)cc3c(-c3ccccc3C(=O)OCC)c-2cc1C [Rhodamine 6G, rhodamine 6G]", "64 ± 4%"),
    ("Cc1cc2nc3ccc(N(C)C)cc3nc2cc1N.Cl [Neutral red, neutral red]", "93 ± 1%"),
    ("CN(C)c1ccc2nc3ccc(N)cc3[s+]c2c1.[Cl-] [Azure A, azure A]", "50 ± 1%"),
    ("CCN(CC)c1ccc2c(-c3ccccc3C(=O)O)c3ccc(=[N+](CC)CC)cc-3oc2c1 [Rhodamine B, rhodamine B]", "56 ± 1%"),
]
